tgt: Recombinant human his-tagged IGF R extracellular domain protein (human) (UniProt P08069)
experimentNotes: SPR, Ab captured via anti-huIgG Fc, dissociation at pH 6

>  <binder>
VRDN-02070 (antibody, V domains shown) VH: QVQLQESGPGLVKPSETLSLTCTVSGYSITGGYLWNWIRQPPGKGLEWIGYISYDGTNNYKPSLKDRVTISRDTSKNQFSLKLSSVTAADTAVYYCARHGRVFFDYWGQGTLVTVSS VL: DIVMTQSPLSLPVTPGEPASISCRSSQSIVHSNGNTYLQWYLQKPGQSPQLLIYKVSNRLYGVPDRFSGSGSGTDFTLKISRVEAEDVGVYYCFQGSHVPHTFGQGTKVEIK

>  <unitName>
s⁻¹

>  <koff>
5.29e-05

$$$$
>  <binder>
VRDN-02035 (antibody, V domains shown) VH: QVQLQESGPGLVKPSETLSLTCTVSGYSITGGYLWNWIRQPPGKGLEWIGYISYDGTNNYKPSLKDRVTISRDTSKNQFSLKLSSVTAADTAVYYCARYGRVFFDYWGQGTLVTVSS VL: DIVMTQSPLSLPVTPGEPASISCRSSQSIHHSNGNTYLQWYLQKPGQSPQLLIYKVSNRLYGVPDRFSGSGSGTDFTLKISRVEAEDVGVYYCFQGSHVPWTFGQGTKVEIK

>  <unitName>
s⁻¹

>  <koff>
0.000107

$$$$
>  <binder>
VRDN-02048 (antibody, V domains shown) VH: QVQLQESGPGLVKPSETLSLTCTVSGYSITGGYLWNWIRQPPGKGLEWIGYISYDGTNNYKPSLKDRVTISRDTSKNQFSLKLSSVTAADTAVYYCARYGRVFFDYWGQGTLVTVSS VL: DIVMTQSPLSLPVTPGEPASISCRSSQSIVHSNGNTYLQWYLQKPGQSPQLLIYKVSNHLYGVPDRFSGSGSGTDFTLKISRVEAEDVGVYYCFQGSHVPWTFGQGTKVEIK

>  <unitName>
s⁻¹

>  <koff>
8.1e-05

$$$$
>  <binder>
VRDN-02068 (antibody, V domains shown) VH: QVQLQESGPGLVKPSETLSLTCTVSGYSITGGYLWNWIRQPPGKGLEWIGYIHYDGTNNYKPSLKDRVTISRDTSKNQFSLKLSSVTAADTAVYYCARYGRVFFDYWGQGTLVTVSS VL: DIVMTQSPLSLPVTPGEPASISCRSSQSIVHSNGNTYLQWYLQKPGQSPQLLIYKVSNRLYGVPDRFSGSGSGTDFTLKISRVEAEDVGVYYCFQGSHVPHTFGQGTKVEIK

>  <unitName>
s⁻¹

>  <koff>
6.53e-05

$$$$
>  <binder>
VRDN-02053 (antibody, V domains shown) VH: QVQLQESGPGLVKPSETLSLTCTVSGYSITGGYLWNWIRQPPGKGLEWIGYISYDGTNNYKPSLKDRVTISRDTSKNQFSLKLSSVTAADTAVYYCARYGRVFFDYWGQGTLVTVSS VL: DIVMTQSPLSLPVTPGEPASISCRSSQSIVHSNGNTYLQWYLQKPGQSPQLLIYKVSNRLYGVPDRFSGSGSGTDFTLKISRVEAEDVGVYYCFQHSHVPWTFGQGTKVEIK

>  <unitName>
s⁻¹

>  <koff>
0.000193

$$$$
>  <binder>
VRDN-02038 (antibody, V domains shown) VH: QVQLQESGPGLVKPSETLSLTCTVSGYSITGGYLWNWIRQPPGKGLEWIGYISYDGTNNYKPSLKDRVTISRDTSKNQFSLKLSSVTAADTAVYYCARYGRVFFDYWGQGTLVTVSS VL: DIVMTQSPLSLPVTPGEPASISCRSSQSIVHSNHNTYLQWYLQKPGQSPQLLIYKVSNRLYGVPDRFSGSGSGTDFTLKISRVEAEDVGVYYCFQGSHVPWTFGQGTKVEIK

>  <unitName>
s⁻¹

>  <koff>
0.000111

$$$$
>  <binder>
VRDN-02005 (antibody, V domains shown) VH: QVQLQESGPGLVKPSETLSLTCTVSGYSIHGGYLWNWIRQPPGKGLEWIGYISYDGTNNYKPSLKDRVTISRDTSKNQFSLKLSSVTAADTAVYYCARYGRVFFDYWGQGTLVTVSS VL: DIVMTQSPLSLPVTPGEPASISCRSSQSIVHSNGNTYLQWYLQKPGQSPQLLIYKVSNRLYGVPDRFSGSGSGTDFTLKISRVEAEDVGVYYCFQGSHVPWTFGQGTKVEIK

>  <unitName>
s⁻¹

>  <koff>
0.000119

$$$$
>  <binder>
VRDN-02024 (antibody, V domains shown) VH: QVQLQESGPGLVKPSETLSLTCTVSGYSITGGYLWNWIRQPPGKGLEWIGYISYDGTNNYKPSLKDRVTISRDTSKNQFSLKLSSVTAADTAVYYCARYGRHFFDYWGQGTLVTVSS VL: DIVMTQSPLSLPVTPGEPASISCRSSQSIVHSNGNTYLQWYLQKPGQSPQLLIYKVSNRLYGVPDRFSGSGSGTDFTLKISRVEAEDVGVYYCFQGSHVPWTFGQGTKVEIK

>  <unitName>
s⁻¹

>  <koff>
7.99e-05

$$$$
>  <binder>
VRDN-02008 (antibody, V domains shown) VH: QVQLQESGPGLVKPSETLSLTCTVSGYSITGGHLWNWIRQPPGKGLEWIGYISYDGTNNYKPSLKDRVTISRDTSKNQFSLKLSSVTAADTAVYYCARYGRVFFDYWGQGTLVTVSS VL: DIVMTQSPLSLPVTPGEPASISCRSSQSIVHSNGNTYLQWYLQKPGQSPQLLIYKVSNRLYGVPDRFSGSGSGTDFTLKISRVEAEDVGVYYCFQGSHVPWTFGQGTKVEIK

>  <unitName>
s⁻¹

>  <koff>
0.00143

$$$$
>  <binder>
VRDN-02040 (antibody, V domains shown) VH: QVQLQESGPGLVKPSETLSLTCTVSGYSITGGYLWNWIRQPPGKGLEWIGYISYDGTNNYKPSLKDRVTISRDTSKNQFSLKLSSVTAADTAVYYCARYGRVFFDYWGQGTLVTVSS VL: DIVMTQSPLSLPVTPGEPASISCRSSQSIVHSNGNHYLQWYLQKPGQSPQLLIYKVSNRLYGVPDRFSGSGSGTDFTLKISRVEAEDVGVYYCFQGSHVPWTFGQGTKVEIK

>  <unitName>
s⁻¹

>  <koff>
9.07e-05

$$$$

meta.source: patent US20240360227A1
